- System: gene editing with Cas9
- assay: Screen of 322 new SSAP proteins, gene editing activity with Cas9 (Table 5)
- Format: cell-based
- experimentalContext: normalized
resultType: Cas9 with SSAP activity (normalized)
Give bare numbers.

Any idea what its Cas9 with SSAP activity (normalized) is? The molecule is SSAP_157: SEQ ID NO: 326; Pseudoflavonifractor sp. An184 (protein, listed as Pseudoflavonifractor sp.) ATEKAIQRATGRAPALENRPALQQYIKQMSGEIKKALPSVMTPERFTRIVLSALSTNPKLAETTPQSFLGAMMTAAQLGLEPNTPLGQAYLLPYWNSKANAYECQFQLGYKGLLDLAYRSGEISVIQAHVVYSEDQFSYSFGLKPELKHIPAGEERGEPVYVYAIFHTKDGGYGFEVCSIDDIRAHAQRYSKSFQNGPWQTNFEEMAKKTVLKRVLKYAPLKSEFLRGLAQDETIKQEISEDMYMVEAAYAEPDVSSAEND
−1.181

These data points were gathered from patent US20250034594A1.
